Please go through the items and note down their pKA.
Target: Muscarinic acetylcholine receptor M2 (Sus scrofa) (UniProt P06199)
Sequence (P06199 whole entry, looked up): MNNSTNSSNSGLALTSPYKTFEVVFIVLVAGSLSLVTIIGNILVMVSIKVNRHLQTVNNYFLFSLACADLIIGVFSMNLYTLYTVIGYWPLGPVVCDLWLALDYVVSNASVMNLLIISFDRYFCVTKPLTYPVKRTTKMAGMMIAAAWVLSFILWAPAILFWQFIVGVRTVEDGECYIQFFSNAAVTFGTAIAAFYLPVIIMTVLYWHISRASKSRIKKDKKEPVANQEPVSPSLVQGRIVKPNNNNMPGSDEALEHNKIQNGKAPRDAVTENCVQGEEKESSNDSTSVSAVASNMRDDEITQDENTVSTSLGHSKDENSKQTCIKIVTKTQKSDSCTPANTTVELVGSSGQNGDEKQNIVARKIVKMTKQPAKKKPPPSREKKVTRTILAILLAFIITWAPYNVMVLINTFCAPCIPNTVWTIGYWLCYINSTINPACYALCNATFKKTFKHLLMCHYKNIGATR
Test: Binding of [3H]N-methylscopolamine at porcine heart Muscarinic acetylcholine receptor M2 and negative log of the equilibrium dissociation constant was reported

Sample CC(C)(CN1C(=O)c2ccccc2C1=O)C[N+](C)(C)CCCCCC[N+](C)(C)CCCN1C(=O)c2ccccc2C1=O — what was its pKA?
6.9

Fill blank: measured pKA of the molecule Cc1ccc2c(c1)C(=O)N(CCC[N+](C)(C)CCCCCC[N+](C)(C)CC(C)(C)CN1C(=O)c3ccccc3C1=O)C2=O is ____.
7.2

Item C[N+](C)(CCCCCC[N+](C)(C)CCCN1C(=O)c2ccccc2C1=O)CCCN1C(=O)c2ccccc2C1=O has what recorded pKA?
6.53

Query: pKA; subject: Cc1ccc2c(c1)C(=O)N(CC(C)(C)C[N+](C)(C)CCCCCC[N+](C)(C)CC(C)(C)CN1C(=O)c3ccc(C)cc3C1=O)C2=O
7.21

====

Biological target: Muscarinic acetylcholine receptor M2 (Sus scrofa)
Test: Binding of [3H]N-methylscopolamine at porcine heart Muscarinic acetylcholine receptor M2 and negative log of the equilibrium dissociation constant was reported
ASSAY_METRIC: pKA
API note: the answer field is a bare number with no unit suffix.

Any idea what its pKA is? The compound is Cc1ccc2c(c1)C(=O)N(CCC[N+](C)(C)CCCCCC[N+](C)(C)CCCN1C(=O)c3ccccc3C1=O)C2=O
6.89

Which pKA reading was recorded for the compound Cc1ccc2c(c1)C(=O)N(CC(C)(C)C[N+](C)(C)CCCCCC[N+](C)(C)CCCN1C(=O)c3ccccc3C1=O)C2=O ?
7.26

Recorded pKA for CC(C)(CN1C(=O)c2ccccc2C1=O)C[N+](C)(C)CCCCCC[N+](C)(C)CC(C)(C)CN1C(=O)c2ccccc2C1=O , please?
7.08

For the compound Cc1ccc2c(c1)C(=O)N(CCC[N+](C)(C)CCCCCC[N+](C)(C)CCCN1C(=O)c3ccc(C)cc3C1=O)C2=O , what pKA is on record?
7.08

Entry under review: Cc1ccc2c(c1)C(=O)N(CCC[N+](C)(C)CCCCCC[N+](C)(C)CC(C)(C)CN1C(=O)c3ccc(C)cc3C1=O)C2=O . Reported pKA?
7.41
